- experimentalTarget: Human CB1R (Cannabanoid receptor 1) (Homo sapiens (Human), UniProt P21554)
- Sequence (P21554 whole entry): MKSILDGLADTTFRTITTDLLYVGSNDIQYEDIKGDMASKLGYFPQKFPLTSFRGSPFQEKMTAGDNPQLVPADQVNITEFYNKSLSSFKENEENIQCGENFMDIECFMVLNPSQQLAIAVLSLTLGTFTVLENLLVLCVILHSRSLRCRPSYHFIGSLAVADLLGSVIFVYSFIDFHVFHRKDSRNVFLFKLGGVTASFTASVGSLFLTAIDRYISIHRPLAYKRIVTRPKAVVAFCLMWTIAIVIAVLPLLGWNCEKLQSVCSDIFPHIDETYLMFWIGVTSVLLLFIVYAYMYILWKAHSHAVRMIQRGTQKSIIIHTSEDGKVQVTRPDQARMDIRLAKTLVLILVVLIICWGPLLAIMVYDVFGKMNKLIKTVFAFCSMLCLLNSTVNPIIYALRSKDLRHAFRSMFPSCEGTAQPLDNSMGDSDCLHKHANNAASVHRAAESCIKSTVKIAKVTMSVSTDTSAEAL
- measurementDescription: CB-1 in vitro cAMP (HTRF) assay in HEK-293 cells
- assaySetup: HEK-293 cells stably transfected with human CB1R, 250 nM Forskolin, mean where tested more than once, read-out: CB-1 (HEK_cAMP) EC50
pEC50: −log10 of the molar value.
Each entry gets FALSE if its pEC50 stays under 7, and TRUE if its pEC50 is 7 or above.

compound	experimentalTarget	group
O=C(O)c1ccc([C@H](c2ccc(Cl)cc2)c2ccc3[nH]nc(C4CCN(S(=O)(=O)C(F)(F)F)CC4)c3c2)cc1	Human CB1R (Cannabanoid receptor 1) (Homo sapiens (Human), UniProt P21554)	FALSE
O=C(O)c1ccccc1S(=O)(=O)N1CCC(c2c3cc(C(c4ccc(Cl)cc4)c4ccc(Cl)cc4)ccc3nn2C2CC2)CC1	Human CB1R (Cannabanoid receptor 1) (Homo sapiens (Human), UniProt P21554)	FALSE
O=C(O)c1ccc(S(=O)(=O)N2CCC(c3c4cc(C(c5ccc(Cl)cc5)c5ccc(Cl)cc5)ccc4nn3C3CC3)CC2)cc1	Human CB1R (Cannabanoid receptor 1) (Homo sapiens (Human), UniProt P21554)	TRUE
O=C(O)Cc1cccc(N2CCC(c3c4cc(C(c5ccc(Cl)cc5)c5ccc(Cl)cc5)ccc4nn3C3CC3)CC2)c1	Human CB1R (Cannabanoid receptor 1) (Homo sapiens (Human), UniProt P21554)	FALSE
O=C(O)c1ccc(CN2CCC(c3c4cc(C(c5ccc(Cl)cc5)c5ccc(Cl)cc5)ccc4nn3C3CC3)CC2)o1	Human CB1R (Cannabanoid receptor 1) (Homo sapiens (Human), UniProt P21554)	TRUE

API: above_or_equal(metric=pEC50, cutoff=7) for item O=C(O)CCC(=O)N1CCC(c2c3cc(C(c4ccc(Cl)cc4)c4ccc(Cl)cc4)ccc3nn2C2CC2)CC1 [Compound 127] FALSE

Check if pEC50 >= 7 (inclusive). Item: NC(=O)c1ccccc1C(=O)N1CCC(c2nn(C3CC3)c3ccc(C(c4ccc(Cl)cc4)c4ccc(Cl)cc4)cc23)CC1 FALSE

# bool: pEC50 of O=C(O)c1ccccc1S(=O)(=O)N1CCC(c2n[nH]c3ccc(C(c4ccc(Cl)cc4)c4ccc(Cl)cc4)cc23)CC1 >= 7 FALSE

Textbook exercise: given the entry CCOC(=O)CS(=O)(=O)N1CCC(c2n[nH]c3ccc(C(c4ccc(Cl)cc4)c4ccc(Cl)cc4)cc23)CC1 , state whether its pEC50 is greater than or equal to 7. FALSE

Textbook exercise: given the entry O=C(O)c1ccc(C(O)(c2ccc(Cl)cc2)c2ccc3[nH]nc(C4CCN(S(=O)(=O)C(F)(F)F)CC4)c3c2)cc1 (centres unmarked) , state whether its pEC50 is greater than or equal to 7. FALSE

Check if pEC50 >= 7 (inclusive). Item: O=S(=O)(N1CCC(c2n[nH]c3ccc(C(c4ccc(Cl)cc4)C4CCCCC4)cc23)CC1)C(F)(F)F (centres unmarked) FALSE

====

Reported EC50 values are given for each entry in this list.
- experimentalTarget: Human CB2R (Cannabanoid receptor 2) (Homo sapiens (Human), UniProt P34972)
- Sequence (P34972 whole entry): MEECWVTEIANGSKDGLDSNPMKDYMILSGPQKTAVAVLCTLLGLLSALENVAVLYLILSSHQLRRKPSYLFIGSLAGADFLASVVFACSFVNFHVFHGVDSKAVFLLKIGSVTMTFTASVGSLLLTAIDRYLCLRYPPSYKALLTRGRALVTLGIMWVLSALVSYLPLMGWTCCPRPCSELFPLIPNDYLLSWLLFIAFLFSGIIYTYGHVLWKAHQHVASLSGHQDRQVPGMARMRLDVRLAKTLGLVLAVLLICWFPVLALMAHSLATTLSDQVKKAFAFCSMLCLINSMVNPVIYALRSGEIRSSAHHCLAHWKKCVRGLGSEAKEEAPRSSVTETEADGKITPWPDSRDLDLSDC
- measurementDescription: CB-2 in vitro cAMP (HTRF) assay in HEK-293 cells
- assaySetup: HEK-293 cells stably transfected with human CB2R, 250 nM Forskolin, mean where tested more than once, read-out: CB-2 (HEK_cAMP) EC50

molecularString	reportedMeasurement
O=C(O)COc1ccc(N2CCC(c3n[nH]c4ccc(C(c5ccc(Cl)cc5)c5ccc(Cl)cc5)cc34)CC2)cc1	> 10 µM

Enter reported EC50 observed with Human CB2R (Cannabanoid receptor 2) (Homo sapiens (Human), UniProt P34972) for NC(=O)c1ccccc1S(=O)(=O)N1CCC(Nc2n[nH]c3ccc(C(c4ccc(Cl)cc4)c4ccc(Cl)cc4)cc23)CC1 > 10 µM

Reported EC50 for Human CB2R (Cannabanoid receptor 2) (Homo sapiens (Human), UniProt P34972), given O=S(=O)(N1CCC(c2nn(-c3ccc(Cl)c(Cl)c3)c3ccc(C(c4ccc(Cl)cc4)c4ccc(Cl)cc4)cc23)CC1)C(F)(F)F ? > 10 µM

Find the measured EC50: item O=C(O)c1ccc(S(=O)(=O)N2CCC(c3c4cc(C(c5ccc(Cl)cc5)c5ccc(Cl)cc5)ccc4nn3C3CC3)CC2)cc1Cl , target or system Human CB2R (Cannabanoid receptor 2) (Homo sapiens (Human), UniProt P34972). 0.95 µM

What reported EC50 corresponds to CNC(=O)c1ccc(S(=O)(=O)N2CCC(c3c4cc(C(c5ccc(Cl)cc5)c5ccc(Cl)cc5)ccc4nn3C3CC3)CC2)cc1OC on Human CB2R (Cannabanoid receptor 2) (Homo sapiens (Human), UniProt P34972)? > 10 µM

Provide the documented EC50 with Human CB2R (Cannabanoid receptor 2) (Homo sapiens (Human), UniProt P34972) as the system for O=C(O)CCS(=O)(=O)N1CCC(c2c3cc(C(c4ccc(Cl)cc4)c4ccc(Cl)cc4)ccc3nn2C2CC2)CC1 > 10 µM

Provenance of the data: patent US9682940B2
